# measurementTarget: T1, mouse DLL4, full length, overexpressed on CHO or HEK293 cells (mouse, UniProt Q9JI71 27-686)
# T1 construct: whole, on cells; also called CHO-mDLL4; CHO-mDII4
# T1 sequence (Q9JI71 27-686): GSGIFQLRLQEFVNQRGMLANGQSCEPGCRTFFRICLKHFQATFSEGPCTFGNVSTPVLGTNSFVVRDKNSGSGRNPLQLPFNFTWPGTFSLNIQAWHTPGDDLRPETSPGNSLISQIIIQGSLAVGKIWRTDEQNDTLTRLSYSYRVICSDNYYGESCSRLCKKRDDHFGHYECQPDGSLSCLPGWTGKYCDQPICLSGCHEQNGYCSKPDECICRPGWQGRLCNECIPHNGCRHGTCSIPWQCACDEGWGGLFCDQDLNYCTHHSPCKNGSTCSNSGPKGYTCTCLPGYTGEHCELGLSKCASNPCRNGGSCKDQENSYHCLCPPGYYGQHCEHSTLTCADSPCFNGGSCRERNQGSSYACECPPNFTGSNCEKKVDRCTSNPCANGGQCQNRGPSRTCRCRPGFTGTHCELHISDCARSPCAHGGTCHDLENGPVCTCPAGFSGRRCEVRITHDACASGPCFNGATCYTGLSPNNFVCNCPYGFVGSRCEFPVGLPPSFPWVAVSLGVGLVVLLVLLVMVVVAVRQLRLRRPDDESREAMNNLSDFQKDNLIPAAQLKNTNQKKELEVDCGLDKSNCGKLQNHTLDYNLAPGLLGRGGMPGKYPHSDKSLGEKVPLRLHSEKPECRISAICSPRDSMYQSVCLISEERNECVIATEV
# protocolSummary: periplasmic extract; FMAT, Notch1/Fc on CHO-mDLL4
Entries and their % inhibition
Numeric only. Scale: %

Answered cases to consult:
[[record]]
binder = "DLLBII112E07 (VHH, also called DLLBII112E7; not shown: C-terminal c-myc and His6 tags) VHH: EVQLVESGGGLVQAGGSLRLSCAASGRTVRSYATGWFRQAPGKEREFVAALRWSIGSIASVYYDDSVKGRFTISGDNAENTVYLQMNALKPEDTAIYYCASTTRGRYSALSASAYDYWGQGTQVTVSS"
unitofmeasurement = "%"
numericvalue = 85

[[record]]
binder = "DLLBII61F05 (VHH, also called DLLBII61F5; not shown: C-terminal c-myc and His6 tags) VHH: EVQLVESGGGLVQPGGSLRLSCTASGFTFSSYAMSWVRQAPGKGLEWVSFINKDGSDTGYADSVKGRFTISRDNAKNTMYLQMNSLKPEDTAVYFCETRTSRSPRPRGQGTQVTVSS"
unitofmeasurement = "%"
numericvalue = 76

[[record]]
binder = "DLLBII61F07 (VHH, also called DLLBII61F7; not shown: C-terminal c-myc and His6 tags) VHH: EVQLVESGGGLVQAGGSLRLSCAASGRTFSRYAMGWFRQAPGKEREFVAAINWSGGSTYYADSVKGRFTISRDNAKNTVYLQMNSLKPEDTAVYDCAASNYYSVYDDRPVMDYWGQGTQVTVSS"
unitofmeasurement = "%"
numericvalue = 77


Assign % inhibition to the following record: DLLBII112A03 (VHH, also called DLLBII112A3; not shown: C-terminal c-myc and His6 tags) VHH: EVQLVESGGGLVQPGGSLRLSCAASGIRFSINGMGWYRQAPGKQREAVATITRGGIRDYTDSVKGRFTISRDIARNTVYLQMNNLKPEDSAVYYCNIDIYWGRGTQVTVSS
97

All figures here come from patent US20130078247A1.
